Cited source: patent US20070128190A1

Target: T1, TMC-2206
T1 construct: murine IgG1/κ secreted by hybridoma BHA2.1; labelled with Eu-N1-ITC where used as tracer; also called BHA2.1
T1 sequence (VH, as listed by the source, chain 1 of 2): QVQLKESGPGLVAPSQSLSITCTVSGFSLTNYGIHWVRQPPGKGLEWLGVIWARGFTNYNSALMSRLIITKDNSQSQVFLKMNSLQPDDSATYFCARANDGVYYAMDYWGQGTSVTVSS
T1 sequence (VL, as listed by the source, chain 2 of 2): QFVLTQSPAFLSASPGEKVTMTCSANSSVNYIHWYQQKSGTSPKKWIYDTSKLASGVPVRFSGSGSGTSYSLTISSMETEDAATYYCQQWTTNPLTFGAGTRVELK
Test: fusion protein competing Eu-TMC-2206 off α2β1-coated plate
Each entry below carries its recorded Ki.

# binder, Ki
measured = [
    ("GST-hα2 I domain N73D (other, same construct as m41; not shown: GST carrier with the pGEX-2TK vector linker at the N end) GSSPDFQLSASFSPATQPCPSLIDVVVVCDESNSIYPWDAVKNFLEKFVQGLDIGPTKTQVGLIQYANNPRVVFDLNTYKTKEEMIVATSQTSQYGGDLTNTFGAIQYARKYAYSAASGGRRSATKVMVVVTDGESHDGSMLKAVIDQCNHDNILRFGIAVLGYLNRNALDTKNLIKEIKAIASIPTERYFFNVSDEAALLEKAGTLGEQIFSIEGTVEFIVTD", "2.17 nM"),
]

Data request: Please report the measured Ki for GST-human α2 I domain fusion protein (other, the reverse primer ends at ...SIEGTV; also called GST-α2 I domain; hα2I; not shown: glutathione S-transferase tag encoded by vector pGEX-2TK) GSSPDFQLSASFSPATQPCPSLIDVVVVCDESNSIYPWDAVKNFLEKFVQGLDIGPTKTQVGLIQYANNPRVVFNLNTYKTKEEMIVATSQTSQYGGDLTNTFGAIQYARKYAYSAASGGRRSATKVMVVVTDGESHDGSMLKAVIDQCNHDNILRFGIAVLGYLNRNALDTKNLIKEIKAIASIPTERYFFNVSDEAALLEKAGTLGEQIFSIEGTVEFIVTD
Data returned: 0.28 nM
